assay: Metabolic stability of the compound in mouse liver microsomes at 1 umol/L by HPLC-MS/MS analysis; format: ADME, Microsome; conditions: dose 1 µmol/L, read-out: Stability; further: time not given here
Examples of compounds with documented remaining at 1 µM follow.
Supply the numeric figure in %, leaving out any unit text.

Prompt line: Give reported remaining at 1 µM value for Cc1sc2c(c1C)C(c1ccc(Cl)cc1)=N[C@@H](CC(=O)N1CCC(c3ccc4c(c3)CN(C3CCC(=O)NC3=O)C4=O)CC1)c1nnc(C)n1-2 (stereo not given in full)
Response line: 51

Prompt line: Give reported remaining at 1 µM value for Cc1sc2c(c1C)C(c1ccc(Cl)cc1)=N[C@@H](CC(=O)NCCNc1ccc(Cc3ccc4c(c3)CN(C3CCC(=O)NC3=O)C4=O)cc1)c1nnc(C)n1-2 (stereo not given in full)
Response line: 55

Let's switch to this compound now.
Prompt line: Give reported remaining at 1 µM value for Cc1sc2c(c1C)C(c1ccc(Cl)cc1)=N[C@@H](CC(=O)Nc1ccc(Cc3ccc4c(c3)CN(C3CCC(=O)NC3=O)C4=O)cc1)c1nnc(C)n1-2 (stereo not given in full)
Response line: 25
